Catalogue of ΔTm values
target.system: Bromodomain-containing protein 4 (Homo sapiens)
experimental.setup: Compound concentration 20.0 uM

{"columns": ["molecule.smiles", "ΔTm"],
 "data": [
  ["CC(=O)N[C@@H](CC(=O)O)C(=O)N[C@@H](CCC(=O)O)C(=O)N[C@H](C(=O)N[C@H](C=O)CC(=O)O)C(C)C", "-1.5 °C"],
  ["COc1cc(Nc2ncc(F)c(Nc3ccc4c(n3)N(COP(=O)(O)O)C(=O)C(C)(C)O4)n2)cc(OC)c1OC", "0.11 °C"],
  ["Nc1ncnc2c1ncn2[C@@H]1O[C@H](C(=O)N2CCN(CC(=O)Nc3cccc4c3CNC4=O)CC2)[C@@H](O)[C@H]1O", "-1.31 °C"],
  ["CN(C)CCCNC(=O)c1ccc(-c2cc(O)c3ncccc3c2)cc1", "1.76 °C"],
  ["CCOCC1(COCC)CCC(c2n[nH]cc2CN(C)CCNC)CC1", "-1.39 °C"],
  ["O=C(O)[C@@H]1CCCN(C(=O)n2cnc(-c3ccc(-c4cnc(N5CCOCC5)nc4)cc3)n2)[C@H]1c1ccccc1", "-1.06 °C"],
  ["Cn1nc2c(=O)n(CC3(O)CCN(C(=O)C[C@H](c4ccccc4)C(F)(F)F)CC3)cnc2c1-c1ccc(CN)cc1", "-2.51 °C"],
  ["CCN(c1cc(C#CCN2CCOCC2)cc(C(=O)NCc2c(C)cc(C)[nH]c2=O)c1C)[C@H]1CC[C@H](N(C)CCOC)CC1", "-1.47 °C"],
  ["CN(CCCCCCNc1ccnc2cc(Cl)ccc12)CCCCCCNc1ccnc2cc(Cl)ccc12", "2.96 °C"],
  ["CC1=NN(c2ccc(C(=O)O)cc2)C(=O)/C1=C/c1ccc(-c2cc(C)c(C)cc2[N+](=O)[O-])o1", "-0.48 °C"]
]}

====

target.system: Cyclin-dependent kinase 2 (Homo sapiens) (UniProt P24941)
experimental.setup: Compound concentration 20.0 uM
Description: Thermal Shift Assay. Domain: start/stop: M1-L298
ΔTm of 0.2 °C or higher: Yes. Under 0.2 °C: No.

{"columns": ["molecule.smiles", "category.label"],
 "data": [
  ["Cc1cc(-c2ccc3nc(C4CCOCC4)n(CCOC(F)(F)F)c3c2)cn(C)c1=O", "No"],
  ["C=C(C)[C@@H](CC=C(C)C)C[C@@]12C[C@@H](CC=C(C)C)C(C)(C)[C@@](CC=C(C)C)(C(=O)C(C(=O)c3ccc(O)c(O)c3)=C1O)C2=O", "No"],
  ["CCN(CC)C(=O)/C(C#N)=C/c1cc(O)c(O)c([N+](=O)[O-])c1", "No"],
  ["COc1cc(O)cc(CN2CCc3c(cc(Cn4ccn(C)c4=N)cc3-c3ccc(F)cc3C)C2=O)c1", "No"],
  ["CC(C)C(=O)c1c(C(C)C)nn2ccccc12", "Yes"],
  ["O=c1c2nnc(C3CCOCC3)n2cc(Br)n1CC1CCCC1", "Yes"],
  ["C[C@H](NC(=O)c1cn(C2(C#N)CC2)cn1)C(=O)Nc1nc(-c2cccc(-c3ccn(C)n3)c2)cs1", "No"],
  ["C[C@H]1CO[C@@H]2Cn3cc(C(=O)NCc4ccc(F)cc4F)c(=O)c(O)c3C(=O)N12", "No"],
  ["CCC(=O)N1CCOc2c(cc(-c3cc(OC)cc(OC)c3)cc2C(=O)N[C@H]2CCCN(C)C2)C1", "Yes"],
  ["CC(C)(O)c1ccc(N2Cc3c(ccnc3-c3ccc(F)cc3OCC(F)(F)F)C2=O)cc1", "No"]
]}

====

target.system: Transcription intermediary factor 1-alpha (Homo sapiens)
experimental.setup: Compound concentration 20.0 uM

{"columns": ["molecule.smiles", "ΔTm"],
 "data": [
  ["N[C@@H](CCCCNC(=O)OCc1ccc([N+](=O)[O-])cc1)C(=O)N1CCCC1", "-0.07 °C"],
  ["CCCNC(=O)[C@H]1O[C@@H]1C(=O)N[C@H](C(=O)N1CCC[C@H]1C(=O)O)[C@@H](C)CC", "-0.81 °C"],
  ["CCCc1nc(C)c2c(=O)nc(-c3cc(S(=O)(=O)N4CCN(CC)CC4)ccc3OCC)[nH]n12", "1.86 °C"],
  ["N#Cc1cccnc1N1CCN(C(=O)c2cccc(Cc3n[nH]c(=O)c4ccccc34)c2)CC1", "-0.96 °C"]
]}

====

target.system: Aurora kinase A (Homo sapiens)
experimental.setup: Compound concentration 20.0 uM
Description: Thermal Shift Assay. Domain: start/stop: E122-S403
Catalogue of ΔTm values

{"columns": ["molecule.smiles", "unit.name", "ΔTm"],
 "data": [
  ["Cc1cc(C)c(CNC(=O)c2cc(-c3ccc(N4CCN(C)CC4)nc3)cc3c2c(C)cn3C(C)C)c(=O)[nH]1", "°C", -1.34],
  ["COc1cc([C@@H]2Oc3c(O)cc([C@H]4Oc5cc(O)cc(O)c5C(=O)[C@@H]4O)cc3[C@H]2CO)ccc1O", "°C", -1.74],
  ["CNc1nccc(CN([C@H]2CC[C@H](N)CC2)S(=O)(=O)c2ccc(S(=O)(=O)N(Cc3ccc(Cl)cc3)C3CCCC3)cc2)n1", "°C", -2.32]
]}

====

target.system: Casein kinase I isoform delta (Homo sapiens) (UniProt P48730)
Sequence (P48730 whole entry, looked up, canonical isoform): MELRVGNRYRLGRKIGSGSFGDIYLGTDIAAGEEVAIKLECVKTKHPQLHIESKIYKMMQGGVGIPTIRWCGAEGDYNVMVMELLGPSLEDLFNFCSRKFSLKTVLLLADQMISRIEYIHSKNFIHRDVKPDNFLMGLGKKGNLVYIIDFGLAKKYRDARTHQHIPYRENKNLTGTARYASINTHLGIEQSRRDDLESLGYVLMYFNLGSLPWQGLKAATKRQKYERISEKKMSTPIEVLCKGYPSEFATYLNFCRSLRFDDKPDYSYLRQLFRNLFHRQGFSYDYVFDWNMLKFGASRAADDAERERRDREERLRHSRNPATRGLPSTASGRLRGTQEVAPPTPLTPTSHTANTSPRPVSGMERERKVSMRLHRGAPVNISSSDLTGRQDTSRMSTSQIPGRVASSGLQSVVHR
experimental.setup: Compound concentration 20.0 uM
Description: Thermal Shift Assay. Domain: start/stop: M1-K294
Residues, ends and D or L forms follow the SMILES beside them. *: point of attachment. Boc = CC(C)(C)OC(=O)*
Each record is given Yes if its reported ΔTm is strictly below 0.02 °C. Records at or above 0.02 °C are given No.

{"columns": ["compound", "category.label"],
 "data": [
  ["NC(=S)c1cccc(-c2cn(C3CCN(S(=O)(=O)C(F)(F)F)CC3)c3cc(CNC(=O)C4CNC4)ccc23)c1", "Yes"],
  ["CC(C)[C@H](NC(=O)[C@H](CCC(=O)O)NC(=O)[C@H](C)NC(=O)OC(C)(C)C)C(=O)N[C@H](C=O)CC(=O)O (Boc-AEVD-aldehyde)", "Yes"],
  ["O=C(CN1CCN(c2ccc(F)cn2)CC1)Nc1nc2c(s1)CCCC2", "Yes"],
  ["COc1ccc(-c2ccc3c(c2)COC3=O)n2nc(C3(C(=O)OCC(C)C)CC3)nc12", "No"],
  ["CCN(C(=O)c1cc(F)ccc1Oc1cncnc1N1CC2(CCN(C[C@H]3CC[C@H](NS(=O)(=O)CC)CC3)CC2)C1)C(C)C", "Yes"],
  ["O=C(c1ccc2[nH]ccc2c1)N1CCN(S(=O)(=O)c2ccc3[nH]c(=O)oc3c2)CC1", "No"],
  ["COC(=O)C1=C(C(=O)OC)[C@@]2([C@@H](Cc3ccc(C)cc3)Nc3ccccc3)C=C[C@@H]1O2", "Yes"],
  ["Nc1cccc(Nc2ncc(-c3ccc(Cl)cc3)o2)c1", "No"],
  ["COc1nc(N)nc(Nc2cc(S(N)(=O)=O)ccc2N[C@@H](c2cccc3c2OC(F)(F)O3)c2ncccc2Cl)n1", "No"],
  ["Cc1ccnc(NS(=O)(=O)c2ccc(NC(=O)Nc3ccc(S(=O)(=O)Nc4nccc(C)n4)cc3)cc2)n1", "Yes"]
]}

====

target.system: Mitogen-activated protein kinase 1 (Homo sapiens)
experimental.setup: Compound concentration 20.0 uM
Description: Thermal Shift Assay. Domain: start/stop: M1-S360
ΔTm of 0.5 °C or higher: Yes. Under 0.5 °C: No.

{"columns": ["molecule.smiles", "category.label"],
 "data": [
  ["C[C@@H](Oc1ccc(S(C)(=O)=O)cc1C(=O)N1C[C@@H]2C[C@]2(c2cc(C(F)(F)F)on2)C1)C(F)(F)F", "No"],
  ["COCCOc1cc(CC2CCN(CCc3ccc4c(c3)C(=O)CCO4)CC2)ccc1Br", "Yes"],
  ["NC(=O)c1cc(F)cc2c1C(=O)N(C1CCN(C3CCC(F)(F)CC3)CC1)C2", "No"],
  ["Cc1cc(C)nc(SCC(=O)Nc2ncc(Cc3cccc(OCc4cn(Cc5ccccc5)nn4)c3)s2)n1", "Yes"]
]}

====

Catalogue of ΔTm values
target.system: Glycogen synthase kinase-3 beta (Homo sapiens) (UniProt P49841)
Sequence (P49841 whole entry, looked up): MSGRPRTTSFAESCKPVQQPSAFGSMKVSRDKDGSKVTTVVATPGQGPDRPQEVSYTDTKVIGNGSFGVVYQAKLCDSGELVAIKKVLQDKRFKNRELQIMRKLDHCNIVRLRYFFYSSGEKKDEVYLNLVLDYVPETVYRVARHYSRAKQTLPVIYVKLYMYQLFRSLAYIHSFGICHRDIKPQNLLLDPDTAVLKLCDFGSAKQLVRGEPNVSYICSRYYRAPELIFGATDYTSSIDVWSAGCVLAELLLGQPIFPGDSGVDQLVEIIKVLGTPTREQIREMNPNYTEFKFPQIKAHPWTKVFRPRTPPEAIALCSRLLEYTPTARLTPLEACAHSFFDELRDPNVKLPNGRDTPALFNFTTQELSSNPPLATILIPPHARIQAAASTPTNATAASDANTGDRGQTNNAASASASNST
experimental.setup: Compound concentration 20.0 uM
Description: Thermal Shift Assay. Domain: start/stop: M26-R383
parameter.measured: ΔTm (°C)

{"columns": ["molecule", "quantitative.readout"],
 "data": [
  ["NC(=O)[C@H]1CCCCc2c1[nH]c1ccc(Cl)cc21", 0.6],
  ["COCc1nc2cnc3cc(-c4c(C)noc4C)c(OC[C@H]4CCNC4)cc3c2n1[C@H](C)c1ccccc1", -0.25],
  ["CCCOc1ccc(NC(=O)CN2CCN(C)CC2)cc1-c1nc(CC)c(CC)c(=O)[nH]1", -0.28],
  ["O=c1[nH][nH]c(=O)c2cc(OCc3ccccc3F)ccc12", 1.24],
  ["COc1cc(Nc2ncc(F)c(Nc3ccc4c(n3)NC(=O)C(C)(C)O4)n2)cc(OC)c1OC", 2.52],
  ["COc1ccccc1C(=O)Nc1cc2c(cc1N1CCCCC1)n(C)c(=O)n2C", 0.08],
  ["Cn1c(=O)cc(N2CCC[C@@H](N)C2)n(Cc2cc(F)ccc2C#N)c1=O", -0.59],
  ["COc1ccc(C(=O)C2CCN(CC(=O)N(Cc3nc4c(c(=O)[nH]3)COCC4)CC3CC3)CC2)cc1", -0.12],
  ["CCC1CCCCN1C(=O)n1ncc(C(O)(c2ccccc2)c2ccccc2)n1 (centres undefined)", -6.94],
  ["CC(=O)NCC(=O)N1CCC[C@@H]1B(O)O", -0.78],
  ["C[C@@H]1CCC[C@H](C)N1NC(=O)c1ccc(Cl)c(S(N)(=O)=O)c1", -0.93],
  ["COc1cc2c(NC3CCN(C)CC3)cc(-c3ccc(C)o3)nc2cc1OCCCN1CCCC1", 0.49],
  ["O=C1c2ccccc2C(=O)c2oc(-c3ccccc3)nc21", 0.18],
  ["N=C(N)NC(=O)c1cnn(-c2cccc3ncccc23)c1C1CC1", -0.31],
  ["CNC(=O)Cn1cc(-c2ccc3c(c2)[C@H](F)C[C@]32NC(=O)N(CC(=O)N(Cc3ccc(F)cc3)[C@@H](C)C(F)(F)F)C2=O)cn1", 1.28],
  ["NCCCOc1cc2ccccc2cc1C(=O)NCCOc1cc2ccccc2cc1C(=O)Nc1ccc(Cl)cc1O", -2.72],
  ["O=C1COc2c(cccc2[C@@H](O)CNCCN(C(=O)CCNCCc2ccc(Cl)c(Cl)c2)C2CCCCC2)N1", 0.42],
  ["Nc1nc2cc(CC[C@H]3C[C@@H](n4ccc5c(N)ncnc54)[C@H](O)[C@@H]3O)ccc2cc1Br", -8.32],
  ["Cn1c(=O)cc(N2CCC[C@@H](N)C2)n(Cc2ccccc2C#N)c1=O", 0.02],
  ["COc1cc([C@@H]2Oc3c(O)cc([C@H]4Oc5cc(O)cc(O)c5C(=O)[C@@H]4O)cc3[C@H]2CO)ccc1O", 3.53],
  ["CS(=O)(=O)N1CCN(C(=O)c2cnc3ccc(Cl)cc3c2-c2ccc(C3(C#N)CC3)cc2)CC1", 4.93],
  ["COc1ccc(CC[C@H]2CCC[C@@H](CCc3ccc(OC)cc3)N2C[C@@H](O)CO)cc1", -0.21],
  ["N#Cc1c(N)[nH]c2cc(/C=C/c3cccc(F)c3)ccc12", -0.5],
  ["O=C1/C(=N/Nc2ccc(S(=O)(=O)O)cc2)C(c2ccc([N+](=O)[O-])cc2)=NN1c1ccccc1", -2.61]
]}

Where do the numbers come from? From ChEMBL document CHEMBL5724796.
